System: E. coli 100/B22
Assay: In vitro antibacterial activity, MIC (modified Autotiter method)
Assay type: cell-based, Escherichia coli
Conditions: Escherichia coli, 100/B22, 20 h, 18-20 hours at 37° C.; read-out: MIC E. coli 100/B22
Here, each record is paired with measured log10 of MIC data.
measured-quantity: log10 of MIC (log10 of the value in µg/mL)

molecule	measured-quantity	quantitative-result
CCCCCCCCCCCCNc1cc[n+](CCCCCCCCC[n+]2ccc(NCCCCCCCCCCCC)cc2)cc1	log10 of MIC	1.80
CCCCCCCCCCNc1cc[n+](CCCCCCCCCC[n+]2ccc(NCCCCCCCCCC)cc2)cc1	log10 of MIC	1.19
CCCCCCCCCCNc1cc[n+](CCCCCCCC[n+]2ccc(NCCCCCCCCCC)cc2)cc1	log10 of MIC	0.59
CCCCCCCCCCNc1cc[n+](CCCCCCCCCCCC[n+]2ccc(NCCCCCCCCCC)cc2)cc1	log10 of MIC	1.19
CCCCCCCCNc1cc[n+](CCCCCCC[n+]2ccc(NCCCCCCCC)cc2)cc1	log10 of MIC	0.00
c1c[n+](CCCC[n+]2ccc(NC3CCCCC3)cc2)ccc1NC1CCCCC1	log10 of MIC	2.10
CCCCC(CC)CNc1cc[n+](CCCCCC[n+]2ccc(NCC(CC)CCCC)cc2)cc1 (centres unmarked)	log10 of MIC	0.59

* * *

Test system: A. niger 16404
Assay: In vitro antifungal activity, MIC (modified Autotiter method)
Format: cell-based, Aspergillus niger
Settings: Aspergillus niger, 16404, 20 h, 18-20 hours at 37° C.; read-out: MIC A. niger 16404
measured-quantity: MIC (µg/mL)

molecule	value-units	result-comparator	quantitative-result
CCCCCCCNc1cc[n+](CCCCCCC[n+]2ccc(NCCCCCCC)cc2)cc1	µg/mL	=	15.6
CCCCCCCNc1cc[n+](CCCC[n+]2ccc(NCCCCCCC)cc2)cc1	µg/mL	=	15.6
CCCCCCCCCCNc1cc[n+](CCCCCCCCCCCC[n+]2ccc(NCCCCCCCCCC)cc2)cc1	µg/mL	=	15.6
Clc1ccc(Nc2cc[n+](CCCCCCCCCC[n+]3ccc(Nc4ccc(Cl)cc4)cc3)cc2)cc1 [Example 79B]	µg/mL	=	25
Nc1cc[n+](CCCCCC[n+]2ccc(N)cc2)cc1 [IV, reference compound]	µg/mL	=	500
CCCCC(CC)CNc1cc[n+](CCCCCCCCC[n+]2ccc(NCC(CC)CCCC)cc2)cc1 (centres unmarked)	µg/mL	=	15.6
CCCCCCCCCCCCNc1cc[n+](CCCCCCCCCCCC[n+]2ccc(NCCCCCCCCCCCC)cc2)cc1	µg/mL	>	62.5
CCCCCCCCCNc1cc[n+](CCCCCCC[n+]2ccc(NCCCCCCCCC)cc2)cc1	µg/mL	=	7.8
Clc1ccc(Nc2cc[n+](CCCC[n+]3ccc(Nc4ccc(Cl)cc4)cc3)cc2)cc1 [Example 76C]	µg/mL	>	250
c1c[n+](CCCCCCCCCC[n+]2ccc(NC3CCCCC3)cc2)ccc1NC1CCCCC1	µg/mL	=	7.8
c1c[n+](CCCCCCCCC[n+]2ccc(NC3CCCCC3)cc2)ccc1NC1CCCCC1	µg/mL	=	7.8
Cc1cc(N)cc[n+]1CCCCCCCCC[n+]1ccc(N)cc1C [IX, reference compound]	µg/mL	=	31.3
CCCCCCCCCCNc1cc[n+](CCCCCCC[n+]2ccc(NCCCCCCCCCC)cc2)cc1	µg/mL	=	7.8
CCCCCCNc1cc[n+](CCCCCC[n+]2ccc(NCCCCCC)cc2)cc1	µg/mL	=	7.8
c1c[n+](CCCC[n+]2ccc(NC3CCCCC3)cc2)ccc1NC1CCCCC1	µg/mL	=	500
CCCCCCCCCCCCNc1cc[n+](CCCCCCCC[n+]2ccc(NCCCCCCCCCCCC)cc2)cc1	µg/mL	>	62.5
CCCCCCCCCNc1cc[n+](CCCCCCCCCCCC[n+]2ccc(NCCCCCCCCC)cc2)cc1	µg/mL	=	15.6

* * *

Test system: S. Aureus Smith
Test: In vitro antibacterial activity, MIC (modified Autotiter method)
Type: cell-based, Staphylococcus aureus
Settings: Staphylococcus aureus, 20 h, 18-20 hours at 37° C.; read-out: MIC S. Aureus Smith
measured-quantity: MIC (µg/mL)

compound	system-name	value-units	quantitative-result
Nc1cc[n+](CCCC[n+]2ccc(N)cc2)cc1 [III, reference compound]	S. Aureus Smith	µg/mL	125
CCCCCCCCCNc1cc[n+](CCCCCC[n+]2ccc(NCCCCCCCCC)cc2)cc1	S. Aureus Smith	µg/mL	0.5
c1c[n+](CCCCC[n+]2ccc(NC3CCCCC3)cc2)ccc1NC1CCCCC1	S. Aureus Smith	µg/mL	125
CCCCC(CC)CNc1cc[n+](CCCCCCCC[n+]2ccc(NCC(CC)CCCC)cc2)cc1 (centres unmarked)	S. Aureus Smith	µg/mL	0.31
Nc1cc[n+](CCCCCCCCC[n+]2ccc(N)cc2)cc1 [VII, reference compound]	S. Aureus Smith	µg/mL	31.3
CCCCCCNc1cc[n+](CCCCCC[n+]2ccc(NCCCCCC)cc2)cc1	S. Aureus Smith	µg/mL	0.49
CCCCCCCCNc1cc[n+](CCCCCCC[n+]2ccc(NCCCCCCCC)cc2)cc1	S. Aureus Smith	µg/mL	0.5
CCCCCCCCCNc1cc[n+](CCCCCCCCCCCC[n+]2ccc(NCCCCCCCCC)cc2)cc1	S. Aureus Smith	µg/mL	1.95

* * *

Below: a set of entries, each annotated with reported MIC.
Test system: E. coli AB1932-1
Experiment: In vitro antibacterial activity, MIC (modified Autotiter method)
Type: cell-based, Escherichia coli
Conditions: Escherichia coli, AB19321, 20 h, 18-20 hours at 37° C.; read-out: MIC E. coli AB1932-1
Experimental: The antibacterial and antifungal activity of representative examples of the compounds of Formula I was determined using a modification of the Autotiter method described by Goss, et al. Applied Microbiology 16 (9) 1,414-1,416 (1968) in which a 1,000 mcg./ml. solution of the test compound is prepared. To the first cup of the Autotray is added 0.1 ml. of the test solution. […]
measured-quantity: MIC (µg/mL)

compound	quantitative-result
CCCCC(CC)CNc1cc[n+](CCCC[n+]2ccc(NCC(CC)CCCC)cc2)cc1 (stereo not shown)	7.8
CCCCC(CC)CNc1cc[n+](CCCCCCCCCCCC[n+]2ccc(NCC(CC)CCCC)cc2)cc1 (stereo not shown) [Example 41C]	1
CCCCCCCCCNc1cc[n+](CCCCCC[n+]2ccc(NCCCCCCCCC)cc2)cc1	1.95
CCCCCCCCNc1cc[n+](CCCCCCCCC[n+]2ccc(NCCCCCCCC)cc2)cc1 [Example 44A]	1

* * *

System: A. niger 16404
Assay: In vitro antifungal activity, MIC (modified Autotiter method)
Format: cell-based, Aspergillus niger
Details: Aspergillus niger, 16404, 20 h, 18-20 hours at 37° C.; read-out: MIC A. niger 16404
measured-quantity: log10(MIC) (log10 of the value in µg/mL)

compound	log10(MIC)
CCCCCCCCNc1cc[n+](CCCCCCCC[n+]2ccc(NCCCCCCCC)cc2)cc1 [Example 11]	0.59
CCCCCCCCCNc1cc[n+](CCCCCCCC[n+]2ccc(NCCCCCCCCC)cc2)cc1 [Example 29C]	0.89
CCCCCCCCCCCCNc1cc[n+](CCCCCCC[n+]2ccc(NCCCCCCCCCCCC)cc2)cc1 [Example 71]	1.80
CCCCCCCNc1cc[n+](CCCCCCCCC[n+]2ccc(NCCCCCCC)cc2)cc1 [Example 24]	0.59
CCCCCCCCCCNc1cc[n+](CCCCCCCCC[n+]2ccc(NCCCCCCCCCC)cc2)cc1 [Example 67]	1.50
CCCCCCNc1cc[n+](CCCC[n+]2ccc(NCCCCCC)cc2)cc1 [Example 16]	2.10
Clc1ccc(Nc2cc[n+](CCCCCC[n+]3ccc(Nc4ccc(Cl)cc4)cc3)cc2)cc1 [Example 77B]	1.80

* * *

Assay: Acute oral toxicity (ALD50)
Assay type: in vivo
Settings: mouse, in vivo, po, mice, suspension in 1% gum tragacanth; read-out: 7-Day ALD50
Quick list: LD50 at 168 h per entry.

compound	LD50 at 168 h
CCCCCCNc1cc[n+](CCCCCCCCCCCCCC[n+]2ccc(NCCCCCC)cc2)cc1	> 1000 mg/kg
CCCCCCCCNc1cc[n+](CCCCCCCCC[n+]2ccc(NCCCCCCCC)cc2)cc1 [Example 44A]	> 1000 mg/kg
CCCCCCCNc1cc[n+](CCCCCCCCCC[n+]2ccc(NCCCCCCC)cc2)cc1	> 1000 mg/kg
CCCCCCCCCNc1cc[n+](CCCCCCCC[n+]2ccc(NCCCCCCCCC)cc2)cc1 [Example 29C]	> 1000 mg/kg
CCCCCCCCNc1cc[n+](CCCCCCCC[n+]2ccc(NCCCCCCCC)cc2)cc1	> 1000 mg/kg

// data source = patent US4206215A
